Biological target: T1, PUF4 RNA-binding domain (Saccharomyces cerevisiae, UniProt P25339 537-888)
T1 sequence: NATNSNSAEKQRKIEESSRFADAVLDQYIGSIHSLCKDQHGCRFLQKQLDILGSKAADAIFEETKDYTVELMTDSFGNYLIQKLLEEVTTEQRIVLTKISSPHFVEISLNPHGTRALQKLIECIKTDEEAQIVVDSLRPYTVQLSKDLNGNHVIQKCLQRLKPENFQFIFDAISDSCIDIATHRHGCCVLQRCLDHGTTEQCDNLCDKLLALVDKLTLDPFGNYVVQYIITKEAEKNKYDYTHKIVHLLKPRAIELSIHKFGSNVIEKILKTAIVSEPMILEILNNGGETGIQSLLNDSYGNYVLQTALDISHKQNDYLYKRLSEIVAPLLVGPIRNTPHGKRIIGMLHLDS
Assay: Mg; RNA-MaP; 20 mM Na-HEPES pH 7.4, 30 mM KOAc, 0.75 mM MgCl2, 0.1% Tween-20, 5% glycerol, 0.1 mg/mL BSA, 2 mM DTT; 25 C; 0.0125-409.6 nM protein
Conditions: tags: N-His6-TEV cleaved; C-SNAP kept, Cy3B-labelled; label: tethered on chip by stalled RNA polymerase
Consider the following binders; for each one, report its pKd.
// returns pKd (minus log10 of molar concentration), number only

Input line: Input Ib_S4_P5E.1_K5.1_C5.1_H5.1_A5.1_[T6C]_F5.1_[A10T]_T5.1 (ssRNA) RNA: UUUGACAACUGAUCGUUCUUUCUUGUAUCAUUUUUCUUUCUCGAUCAGUUGUCUUU , output reported pKd.
Output line: 8.11

Input line: Input UCUCUUUGUAUUCUUAUUAUCUCUU (ssRNA) [Ie_S1_P5E.1_K5.1_C5.1_H5.1_A5.1_[+5TCT]_F5.1_T5.1] , output reported pKd.
Output line: 8.15

Input line: Input Id_ii_S4_P3E.3_K3.2_C3.2_[C-2G]_[T-1G]_H3.2_A3.1_F3.1_T3.2_[T9A]_[A10C] (ssRNA) RNA: UUUGACAACUGAUCGUUCUUUCUGGUAUAUAUAACUUCUUUCUCGAUCAGUUGUCUUU , output reported pKd.
Output line: 5.67

Input line: Input Ic_S2_P4E.1_K4.1_C4.1_H4.1_A4.1_[T5C]_[T7C]_F4.1_[T8C]_T4.1 (ssRNA) RNA: UUUGAUUAAUAUGAUAUCGUUCUUUCUUGUACACCAUUCUUUCUCGAUAUCAUAUUAAUCUUU , output reported pKd.
Output line: 7.85

Data origin, for the record: paper PMC9352680
